Ref: the supplement of paper PMC10307832

Test system: NCI-H1651
assayDetails: relative viability (nuclei count vs DMSO), 5 days (fraction); higher = more cells survive
protocolConditions: first compound 500 µM
For each of the compounds below, state its relative viability.

Use the examples below as a reference point.
compound	relative viability
O=C(O)CCCCC(CCSCc1ccccc1)SCc1ccccc1 (stereo unspecified) [CPI-613] + COc1cccc2cc(-c3nc([C@H]4CC[C@H](C(=O)O)CC4)n4ncnc(N)c34)[nH]c12 [OSI-027] (partner 0.5 µM)	0.0775
O=C(O)CCCCC(CCSCc1ccccc1)SCc1ccccc1 (stereo unspecified) [CPI-613] + CS(=O)(=O)N1CCN(Cc2cc3nc(-c4cccc5[nH]ncc45)nc(N4CCOCC4)c3s2)CC1 [Pictilisib] (partner 1 µM)	0.0986
O=C(O)CCCCC(CCSCc1ccccc1)SCc1ccccc1 (stereo unspecified) [CPI-613] + Cc1nc(Nc2ncc(C(=O)Nc3c(C)cccc3Cl)s2)cc(N2CCN(CCO)CC2)n1 [Dasatinib] (partner 0.075 µM)	0.123
O=C(O)CCCCC(CCSCc1ccccc1)SCc1ccccc1 (stereo unspecified) [CPI-613] + Nc1nc2[nH]cc(CCc3ccc(C(=O)N[C@@H](CCC(=O)O)C(=O)O)cc3)c2c(=O)[nH]1 [Pemetrexed] (partner 0.2 µM)	0.579
O=C(O)CCCCC(CCSCc1ccccc1)SCc1ccccc1 (stereo unspecified) [CPI-613] + Cc1nc(NC(=O)N2CCC[C@H]2C(N)=O)sc1-c1ccnc(C(C)(C)C(F)(F)F)c1 [Alpelisib] (partner 2 µM)	0.116

Kindly note the recorded relative viability for O=C(O)CCCCC(CCSCc1ccccc1)SCc1ccccc1 (stereo unspecified) [CPI-613] + NC(=O)Nc1cc(-c2cccc(F)c2)sc1C(=O)N[C@H]1CCCNC1 [AZD7762] (partner 0.2 µM) , which is 0.45

---

For each record, write down the corresponding relative viability.
System: NCI-H441
assayDetails: relative viability (nuclei count vs DMSO), 5 days (fraction); higher = more cells survive
protocolConditions: first compound 1.265 µM

compound	relative viability
Cc1sc2c(c1C)C(c1ccc(Cl)cc1)=N[C@@H](CC(=O)OC(C)(C)C)c1nnc(C)n1-2 [JQ1] + CC(=O)Nc1cccc(-n2c(=O)n(C3CC3)c(=O)c3c(Nc4ccc(I)cc4F)n(C)c(=O)c(C)c32)c1 [Trametinib] (partner 0.02 µM)	0.175

Items follow; give relative viability for each.
1. Cc1sc2c(c1C)C(c1ccc(Cl)cc1)=N[C@@H](CC(=O)OC(C)(C)C)c1nnc(C)n1-2 [JQ1] + O=C(c1cc(Cc2n[nH]c(=O)c3ccccc23)ccc1F)N1CCN(C(=O)C2CC2)CC1 [Olaparib] (partner 8 µM)
2. Cc1sc2c(c1C)C(c1ccc(Cl)cc1)=N[C@@H](CC(=O)OC(C)(C)C)c1nnc(C)n1-2 [JQ1] + CS(=O)(=O)N1CCN(Cc2cc3nc(-c4cccc5[nH]ncc45)nc(N4CCOCC4)c3s2)CC1 [Pictilisib] (partner 1 µM)
3. Cc1sc2c(c1C)C(c1ccc(Cl)cc1)=N[C@@H](CC(=O)OC(C)(C)C)c1nnc(C)n1-2 [JQ1] + NC(=O)Nc1cc(-c2cccc(F)c2)sc1C(=O)N[C@H]1CCCNC1 [AZD7762] (partner 0.2 µM)

[0.17, 0.234, 0.369]

---

System: HCC-827
assayDetails: relative viability (nuclei count vs DMSO), 5 days (fraction); higher = more cells survive
protocolConditions: first compound 0.8 µM
Record form. Attribute: relative viability. Fill in for each entry.
One number for each entry.

Here's what some known entries look like.
compound	value
Cc1cnc(-c2cnc(NCCNc3ccc(C#N)cn3)nc2-c2ccc(Cl)cc2Cl)[nH]1 + CCNC(=O)c1noc(-c2cc(C(C)C)c(O)cc2O)c1-c1ccc(CN2CCOCC2)cc1 [Luminespib] (partner 0.01 µM)	0.752
O=c1[nH]c2ccccc2n1C1CCN(CCCC(c2ccc(F)cc2)c2ccc(F)cc2)CC1 [Pimozide] + CC1(C)CCC(c2ccc(Cl)cc2)=C(CN2CCN(c3ccc(C(=O)NS(=O)(=O)c4ccc(N[C@H](CCN5CCOCC5)CSc5ccccc5)c(S(=O)(=O)C(F)(F)F)c4)cc3)CC2)C1 [Navitoclax] (partner 0.5 µM)	0.897
O=c1[nH]c2ccccc2n1C1CCN(CCCC(c2ccc(F)cc2)c2ccc(F)cc2)CC1 [Pimozide] + Nc1nc2[nH]cc(CCc3ccc(C(=O)N[C@@H](CCC(=O)O)C(=O)O)cc3)c2c(=O)[nH]1 [Pemetrexed] (partner 0.2 µM)	0.258

Here is the next item to consider.
Lookup result for O=c1[nH]c2ccccc2n1C1CCN(CCCC(c2ccc(F)cc2)c2ccc(F)cc2)CC1 [Pimozide] + CS(=O)(=O)N1CCN(Cc2cc3nc(-c4cccc5[nH]ncc45)nc(N4CCOCC4)c3s2)CC1 [Pictilisib] (partner 1 µM) ; measured relative viability: 0.986

---

Tested on: NCI-H2126
assayDetails: relative viability (nuclei count vs DMSO), 5 days (fraction); higher = more cells survive
protocolConditions: first compound 0.8 µM
Give measured relative viability for each item. Keep answers brief.
Give bare numbers.

compound	relative viability
Cc1cnc(-c2cnc(NCCNc3ccc(C#N)cn3)nc2-c2ccc(Cl)cc2Cl)[nH]1 + CS(=O)(=O)N1CCN(Cc2cc3nc(-c4cccc5[nH]ncc45)nc(N4CCOCC4)c3s2)CC1 [Pictilisib] (partner 1 µM)	0.494

Record Cc1cnc(-c2cnc(NCCNc3ccc(C#N)cn3)nc2-c2ccc(Cl)cc2Cl)[nH]1 + CS(=O)(=O)CCNCc1ccc(-c2ccc3ncnc(Nc4ccc(OCc5cccc(F)c5)c(Cl)c4)c3c2)o1 [Lapatinib] (partner 2 µM) , field relative viability: 0.786

---

Test system: SK-LU-1
assayDetails: relative viability (nuclei count vs DMSO), 5 days (fraction); higher = more cells survive
protocolConditions: first compound 0.005 µM
Assignment: determine reported relative viability for the given compounds.

compound	relative viability
Nc1ccn([C@@H]2O[C@H](CO)[C@@H](O)[C@@H]2O)c(=O)n1 [Cytarabine] + CC(=O)Nc1cccc(-n2c(=O)n(C3CC3)c(=O)c3c(Nc4ccc(I)cc4F)n(C)c(=O)c(C)c32)c1 [Trametinib] (partner 0.02 µM)	0.416

relative viability measured on COc1cc2nccc(Oc3ccc(NC(=O)Nc4cc(C)on4)c(Cl)c3)c2cc1OC [Tivozanib] + CC(=O)Nc1cccc(-n2c(=O)n(C3CC3)c(=O)c3c(Nc4ccc(I)cc4F)n(C)c(=O)c(C)c32)c1 [Trametinib] (partner 0.02 µM) = 0.508

---

Tested on: SK-LU-1
assayDetails: relative viability (nuclei count vs DMSO), 5 days (fraction); higher = more cells survive
protocolConditions: first compound 2.53 µM
observable: relative viability
Give bare numbers.

Solved entries (count: 3):
compound	observable	value
Cc1cnc(-c2cnc(NCCNc3ccc(C#N)cn3)nc2-c2ccc(Cl)cc2Cl)[nH]1 + Cc1nc(Nc2ncc(C(=O)Nc3c(C)cccc3Cl)s2)cc(N2CCN(CCO)CC2)n1 [Dasatinib] (partner 0.075 µM)	relative viability	0.226
O=c1[nH]c2ccccc2n1C1CCN(CCCC(c2ccc(F)cc2)c2ccc(F)cc2)CC1 [Pimozide] + COc1cccc2cc(-c3nc([C@H]4CC[C@H](C(=O)O)CC4)n4ncnc(N)c34)[nH]c12 [OSI-027] (partner 0.5 µM)	relative viability	0.231
O=c1[nH]c2ccccc2n1C1CCN(CCCC(c2ccc(F)cc2)c2ccc(F)cc2)CC1 [Pimozide] + Nc1nc2[nH]cc(CCc3ccc(C(=O)N[C@@H](CCC(=O)O)C(=O)O)cc3)c2c(=O)[nH]1 [Pemetrexed] (partner 0.2 µM)	relative viability	0.853

Now let's try a different one.
Summary for this compound, Cc1cnc(-c2cnc(NCCNc3ccc(C#N)cn3)nc2-c2ccc(Cl)cc2Cl)[nH]1 + O=C(c1cc(Cc2n[nH]c(=O)c3ccccc23)ccc1F)N1CCN(C(=O)C2CC2)CC1 [Olaparib] (partner 8 µM) : relative viability is 0.472

---

Test system: NCI-H1793
assayDetails: relative viability (nuclei count vs DMSO), 5 days (fraction); higher = more cells survive
protocolConditions: first compound 2.53 µM
observable: relative viability
Answers are plain numbers.

// known answers, use as guide
compound	relative viability
Cc1cnc(-c2cnc(NCCNc3ccc(C#N)cn3)nc2-c2ccc(Cl)cc2Cl)[nH]1 + COc1cccc2cc(-c3nc([C@H]4CC[C@H](C(=O)O)CC4)n4ncnc(N)c34)[nH]c12 [OSI-027] (partner 0.5 µM)	0.279
O=c1[nH]c2ccccc2n1C1CCN(CCCC(c2ccc(F)cc2)c2ccc(F)cc2)CC1 [Pimozide] + Cc1cc(Nc2cc(N3CCN(C)CC3)nc(Sc3ccc(NC(=O)C4CC4)cc3)n2)n[nH]1 [Tozasertib] (partner 0.1 µM)	0.244
O=c1[nH]c2ccccc2n1C1CCN(CCCC(c2ccc(F)cc2)c2ccc(F)cc2)CC1 [Pimozide] + COc1cccc2cc(-c3nc([C@H]4CC[C@H](C(=O)O)CC4)n4ncnc(N)c34)[nH]c12 [OSI-027] (partner 0.5 µM)	0.245

The compound identified as Cc1cnc(-c2cnc(NCCNc3ccc(C#N)cn3)nc2-c2ccc(Cl)cc2Cl)[nH]1 + Cc1cc(Nc2cc(N3CCN(C)CC3)nc(Sc3ccc(NC(=O)C4CC4)cc3)n2)n[nH]1 [Tozasertib] (partner 0.1 µM) registered its relative viability at 0.182
